We begin with a simple list: items and their reported Euclidean distance.
System: DU145
protocol_notes: Euclidean distance of Cell Painting phenotypic profile (signed KS, 77 features) to DMSO centroid (dimensionless distance); higher = stronger phenotypic change vs DMSO (phenoactivity)
condition_label: 48 h; 5 or 10 uM (library dependent)
Counter-ions that a name gives are not always drawn.

compound	Euclidean distance
CNC(=O)Oc1cccc2ccccc12	0.843
COCC1(CO)C(=O)C2CCN1CC2 (stereo unspecified)	4.09
CC(O)(CS(=O)(=O)c1ccc(F)cc1)C(=O)Nc1ccc(C#N)c(C(F)(F)F)c1 (stereo unspecified) [Bicalutamide]	0.992
CCC1(c2ccc(N)cc2)CCC(=O)NC1=O (stereo unspecified) [Aminoglutethimide]	0.574
CC(C)NCC(O)c1ccccc1Cl (stereo unspecified) [Clorprenaline HCl]	0.599
O=C(O)CNC(=O)C1C(=O)N(C2CCCCC2)C(=O)N(C2CCCCC2)C1=O	1.4

* * *

Test system: OVCAR4
protocol_notes: Euclidean distance of Cell Painting phenotypic profile (signed KS, 77 features) to DMSO centroid (dimensionless distance); higher = stronger phenotypic change vs DMSO (phenoactivity)
condition_label: 48 h; 5 or 10 uM (library dependent)
Counter-ions that a name gives are not always drawn.
We begin with a simple list: items and their reported Euclidean distance.
assay_readout: Euclidean distance

compound	recorded_number
CN1[C@@H]2CC[C@H]1C[C@@H](OC(=O)[C@H](CO)c1ccccc1)C2	1.31
NC(=O)CN1CC(c2ccccc2)CC1=O (stereo not given)	1.3
COc1ccc(C(=O)N2CCCC2=O)cc1	1.07
O=C1CC[C@@]2(O)[C@H]3Cc4ccc(O)c5c4[C@@]2(CCN3CC2CC2)[C@H]1O5 [Naltrexone HCl]	1.99
C/C=C(\C)C(=O)N[C@@H](c1ccccc1)[C@@H](O)C(=O)O[C@H]1C[C@@]2(O)[C@@H](OC(=O)c3ccccc3)[C@@H]3[C@]4(OC(C)=O)CO[C@@H]4C[C@H](O)[C@@]3(C)C(=O)[C@H](OC(C)=O)C(=C1C)C2(C)C	2.98

* * *

Tested on: OVCAR4
protocol_notes: Euclidean distance of Cell Painting phenotypic profile (signed KS, 77 features) to DMSO centroid (dimensionless distance); higher = stronger phenotypic change vs DMSO (phenoactivity)
condition_label: 48 h; 5 or 10 uM (library dependent)
Counter-ions that a name gives are not always drawn.
We begin with a simple list: items and their reported Euclidean distance.
assay_readout: Euclidean distance

compound	assay_readout	recorded_number
C[C@H]1CC(=O)C[C@@H]2CC[C@H]3[C@@H]4CC[C@H](O)[C@@]4(C)CC[C@@H]3[C@]21C [Mesterolone]	Euclidean distance	0.883
CC(C)(C)c1cc(C=C(C#N)C#N)cc(Br)c1O	Euclidean distance	1.52
CCc1c(C(=O)C(N)=O)c2c(OCC(=O)O)cccc2n1Cc1ccccc1	Euclidean distance	0.982
C[C@]12CCC(=O)C(O)=C1CC[C@@H]1[C@@H]2CC[C@]2(C)C(=O)CC[C@@H]12 [Formestane]	Euclidean distance	0.703
Cc1cccc(C(C)c2c[nH]cn2)c1C (stereo unspecified) [Medetomidine HCl]	Euclidean distance	1.07
CC(NC(C)(C)C)C(=O)c1cccc(Cl)c1 (stereo unspecified) [Amfebutamone HCl]	Euclidean distance	1.45
CC(=O)NC1CCSC1=O (stereo unspecified) [Citiolone]	Euclidean distance	1.71
CC(=O)Nc1ccc(OC[C@](C)(O)C(=O)Nc2ccc([N+](=O)[O-])c(C(F)(F)F)c2)cc1 [Andarine]	Euclidean distance	1
CC[C@@H](CO)NC(=O)[C@@H]1C=C2c3cccc4c3c(cn4C)C[C@H]2N(C)C1 [Methysergide Maleate]	Euclidean distance	1.34
COC(=O)C[C@](O)(CCC(C)(C)O)C(=O)O[C@@H]1C(OC)=C[C@]23CCCN2CCc2cc4c(cc2[C@H]13)OCO4 [Harringtonine]	Euclidean distance	3.73
CC(C)(O)C(Cl)(Cl)Cl [Chlorobutanol]	Euclidean distance	2
CC(C)=CCOc1c2occc2cc2ccc(=O)oc12 [Imperatorin]	Euclidean distance	1.32
Oc1ccc(Cl)cc1Cc1cc(Cl)ccc1O [Dichlorophene]	Euclidean distance	1.18
C=CCC(C(=O)NC(N)=O)C(C)C (stereo unspecified) [Apronal]	Euclidean distance	1.09
O=C1C=C2C=C[C@@H]3C[C@@]2(O1)[C@H]1CCCCN31 [Securinine]	Euclidean distance	1.74
Cn1c(CCCCCCC(=O)NO)nc2cc(N(CCCl)CCCl)ccc21 [Tinostamustine(EDO-S101)]	Euclidean distance	3.16

Reference for the values: the supplement of paper PMC10127200
